Numbers sourced from patent USRE37781E1.

Listed compounds paired with reported melting point
Structures can show the parent of a compound that is named as a salt.
observable: melting point

INSERT INTO results (compound, observable, result_value) VALUES
  ('C=CCN1C(=O)N(Cc2ccccc2)C(Cc2ccccc2)C(O)C(O)C1Cc1ccccc1 (centres unmarked)', 'melting point', '226.5 °C'),
  ('CC(C)CCCCCN1C(=O)N(CCCCCC(C)C)C(Cc2ccccc2)C(O)C(O)C1Cc1ccccc1 (centres unmarked)', 'melting point', '144 to 145 °C'),
  ('O=C1N(Cc2ccc(OCc3ccccc3)cc2)C(Cc2ccccc2)C(O)C(O)C(Cc2ccccc2)N1Cc1ccc(OCc2ccccc2)cc1 (centres unmarked)', 'melting point', '80 to 81 °C'),
  ('C#CCN1C(=O)N(CC#C)C(Cc2ccccc2)C(O)C(O)C1Cc1ccccc1 (centres unmarked)', 'melting point', '198 to 200 °C'),
  ('NC(=O)c1cccc(CN2C(=O)N(Cc3ccc(CO)cc3)C(Cc3ccccc3)C(O)C(O)C2Cc2ccccc2)c1 (centres unmarked) [15WT]', 'melting point', '123 to 124 °C'),
  ('CCCCCN1C(=O)N(CCCCC)C(Cc2ccccc2)C(O)C(O)C1Cc1ccccc1 (centres unmarked)', 'melting point', '125 to 127 °C'),
  ('NNC(=O)c1cccc(CN2C(=O)N(Cc3cccc(C(=O)NN)c3)C(Cc3ccccc3)C(O)C(O)C2Cc2ccccc2)c1 (centres unmarked) [Example 10M]', 'melting point', '205 °C'),
  ('O=C1N(CCN2CCOCC2)C(Cc2ccccc2)C(O)C(O)C(Cc2ccccc2)N1CCN1CCOCC1 (centres unmarked)', 'melting point', '70 to 75 °C'),
  ('O=C1N(Cc2ccccn2)C(Cc2ccccc2)C(O)C(O)C(Cc2ccccc2)N1Cc1ccccn1 (centres unmarked)', 'melting point', '151 to 153 °C'),
  ('O=C1N(Cc2cccc(Br)c2)C(Cc2ccccc2)C(O)C(O)C(Cc2ccccc2)N1Cc1cccc(Br)c1 (centres unmarked)', 'melting point', '210.7 °C'),
  ('O=C1N(Cc2ccc3[nH]ccc3c2)C(Cc2ccccc2)C(O)C(O)C(Cc2ccccc2)N1Cc1ccc2[nH]ccc2c1 (centres unmarked) [15DE]', 'melting point', '170 °C (dec.)'),
  ('N#CN=C1N(Cc2cccc(OCc3ccccc3)c2)C(Cc2ccccc2)C(O)C(O)C(Cc2ccccc2)N1Cc1cccc(OCc2ccccc2)c1 (centres unmarked)', 'melting point', '75.2 °C'),
  ('CN1C(=O)N(C)C(Cc2ccccc2)C(O)C(O)C1Cc1ccccc1 (centres unmarked)', 'melting point', '170 to 174 °C'),
  ('O=C1N(Cc2cccnc2)C(Cc2ccccc2)C(O)C(O)C(Cc2ccccc2)N1Cc1ccc2ccccc2c1 (centres unmarked)', 'melting point', '94 to 96 °C'),
  ('CCCN1C(=NC#N)N(CCC)C(Cc2ccccc2)C(O)C(O)C1Cc1ccccc1 (centres unmarked)', 'melting point', '216.6 °C'),
  ('O=C1N(Cc2cccc(C=NO)c2)C(Cc2ccccc2)C(O)C(O)C(Cc2ccccc2)N1Cc1cccc(CNO)c1 (centres unmarked)', 'melting point', '214 to 216 °C'),
  ('N#CN=C1N(CC2CCC2)C(Cc2ccccc2)C(O)C(O)C(Cc2ccccc2)N1CC1CCC1 (centres unmarked)', 'melting point', '235.5 °C'),
  ('Cc1ccc(CN2C(=O)N(Cc3ccc(CO)cc3)C(Cc3ccccc3)C(O)C(O)C2Cc2ccccc2)cc1 (centres unmarked) [15EI]', 'melting point', '174 to 175 °C'),
  ('CC1C(O)C(O)C(C)N(Cc2ccc3ccccc3c2)C(=O)N1Cc1ccc2ccccc2c1 (centres unmarked) [Example 16H]', 'melting point', '236 to 238 °C'),
  ('COCCN1C(=O)N(CCOC)C(Cc2ccccc2)C(O)C(O)C1Cc1ccccc1 (centres unmarked)', 'melting point', '183 to 185 °C'),
  ('O=C(O)c1cccc(CN2C(=O)N(Cc3ccc(CO)cc3)C(Cc3ccccc3)C(O)C(O)C2Cc2ccccc2)c1 (centres unmarked) [15WR]', 'melting point', '130 to 132 °C'),
  ('N#CN=C1N(Cc2ccc([N+](=O)[O-])cc2)C(Cc2ccccc2)C(O)C(O)C(Cc2ccccc2)N1Cc1ccc([N+](=O)[O-])cc1 (centres unmarked)', 'melting point', '130.3 °C'),
  ('O=C1N(Cc2ccncc2)C(Cc2ccccc2)C(O)C(O)C(Cc2ccccc2)N1Cc1ccc2ccccc2c1 (centres unmarked)', 'melting point', '118 to 121 °C'),
  ('O=C1N(Cc2cccc(CCl)c2)C(Cc2ccccc2)C(O)C(O)C(Cc2ccccc2)N1Cc1cccc(CCl)c1 (centres unmarked)', 'melting point', '156 to 157 °C'),
  ('CC(C)CCCN1C(=O)N(CCCC(C)C)C(Cc2ccccc2)C(O)C(O)C1Cc1ccccc1 (centres unmarked)', 'melting point', '120 to 122 °C'),
  ('O=C1N(Cc2cccc(-c3cc[nH]n3)c2)C(Cc2ccccc2)C(O)C(O)C(Cc2ccccc2)N1Cc1cccc(-c2cc[nH]n2)c1 (centres unmarked) [Example 15YL]', 'melting point', '208 to 210 °C'),
  ('O=C1N(Cc2ccc3ccccc3c2)C(Cc2ccccc2)C(O)C(O)C(Cc2ccccc2)N1CC1CC1 (centres unmarked)', 'melting point', '175 to 178 °C'),
  ('CC(=O)c1cccc(CN2C(=O)N(Cc3cccc(Br)c3)C(Cc3ccccc3)C(O)C(O)C2Cc2ccccc2)c1 (centres unmarked)', 'melting point', '190 to 191 °C'),
  ('O=C1N(Cc2cccc(-c3cc[nH]n3)c2)C(Cc2ccccc2)C(O)C(O)C(Cc2ccccc2)N1Cc1cccc(-c2cc[nH]n2)c1 (centres unmarked) (as salt: HCl) [Example 15YM]', 'melting point', '195 to 197 °C');
